# test: Pharmacokinetics of nafamostat in rats after intravenous injection and oral administration (LC-MS/MS, non-compartmental)
# Format: in vivo
# conditionsUsed: male, Sprague-Dawley, rat, plasma, iv, 2 mg/kg, IV injection 2 mg/kg in 5% DMSO
observedProperty: half-life (h)
Could you give me the number in h? Just the number is fine.

## Input Query (compound): `N=C(N)c1ccc2cc(OC(=O)c3ccc(N=C(N)N)cc3)ccc2c1` ; field requested: half-life
## Output 1.39

###

# test: Pharmacokinetics of nafamostat in rats after intravenous injection and oral administration (LC-MS/MS, non-compartmental)
# Assay type: in vivo
# conditionsUsed: male, Sprague-Dawley, rat, plasma, po, 20 mg/kg, oral 20 mg/kg, vehicle 1: 10% DMSO
observedProperty: bioavailability (%)
Could you give me the number in %? Just the number is fine.

## Input Query (compound): N=C(N)c1ccc2cc(OC(=O)c3ccc(N=C(N)N)cc3)ccc2c1 [nafamostat] ; field requested: bioavailability
## Output 0.95

###

# test: Pharmacokinetics of nafamostat in rats after intravenous injection and oral administration (LC-MS/MS, non-compartmental)
# Type: in vivo
# conditionsUsed: male, Sprague-Dawley, rat, plasma, iv, 2 mg/kg, IV injection 2 mg/kg in 5% DMSO, plasma, read-out: C0 or Cmax
# Experimental: Therefore, nafamostat dissolved in 5% DMSO was administered by intravenous injection via penile vein at a dose of 2 mg/kg (n = 5). […] The plasma nafamostat concentration–time data were analyzed by a non-compartmental method using the nonlinear least-squares regression program, Phoenix WinNonlin (Version 6.4, Certara, L.P., Princeton, NJ, USA).
observedProperty: Cmax (ng/mL)
Could you give me the number in ng/mL? Just the number is fine.

## Input Query (compound): `N=C(N)c1ccc2cc(OC(=O)c3ccc(N=C(N)N)cc3)ccc2c1` ; field requested: Cmax
## Output 5290

###

# test: Pharmacokinetics of nafamostat in rats after intravenous injection and oral administration (LC-MS/MS, non-compartmental)
# Assay type: in vivo
# conditionsUsed: male, Sprague-Dawley, rat, plasma, po, 20 mg/kg, oral 20 mg/kg, vehicle 1: 10% DMSO
# Description: Therefore, nafamostat dissolved in 5% DMSO was administered by intravenous injection via penile vein at a dose of 2 mg/kg (n = 5). […] The plasma nafamostat concentration–time data were analyzed by a non-compartmental method using the nonlinear least-squares regression program, Phoenix WinNonlin (Version 6.4, Certara, L.P., Princeton, NJ, USA).
observedProperty: Tmax
Reply with the number, then its unit.

## Input Query (molecule): N=C(N)c1ccc2cc(OC(=O)c3ccc(N=C(N)N)cc3)ccc2c1 [nafamostat] ; field requested: Tmax
## Output 27 min

###

# test: Pharmacokinetics of nafamostat in rats after intravenous injection and oral administration (LC-MS/MS, non-compartmental)
# Format: in vivo
# conditionsUsed: male, Sprague-Dawley, plasma; rat, IV injection 2 mg/kg in 5% DMSO; read-out: Vss
observedProperty: Vd (L/kg)
Could you give me the number in L/kg? Just the number is fine.

## Input Query (molecule): `N=C(N)c1ccc2cc(OC(=O)c3ccc(N=C(N)N)cc3)ccc2c1` ; field requested: Vd
## Output 0.99

###

# test: Pharmacokinetics of nafamostat in rats after intravenous injection and oral administration (LC-MS/MS, non-compartmental)
# Format: in vivo
# conditionsUsed: male, Sprague-Dawley, rat, plasma, po, 20 mg/kg, oral 20 mg/kg, vehicle 1: 10% DMSO
# Protocol: Therefore, nafamostat dissolved in 5% DMSO was administered by intravenous injection via penile vein at a dose of 2 mg/kg (n = 5). […] The plasma nafamostat concentration–time data were analyzed by a non-compartmental method using the nonlinear least-squares regression program, Phoenix WinNonlin (Version 6.4, Certara, L.P., Princeton, NJ, USA).
observedProperty: AUC(0-inf) (ng·h/mL)
Could you give me the number in ng·h/mL? Just the number is fine.

## Input Query (molecule): N=C(N)c1ccc2cc(OC(=O)c3ccc(N=C(N)N)cc3)ccc2c1 [nafamostat] ; field requested: AUC(0-inf)
## Output 42.4

###

# test: Pharmacokinetics of nafamostat in rats after intravenous injection and oral administration (LC-MS/MS, non-compartmental)
# Format: in vivo
# conditionsUsed: male, Sprague-Dawley, plasma; rat, oral 20 mg/kg, vehicle 2: 10% DMSO + 10% Tween 80; read-out: CL or CL/F
observedProperty: CL/F
Reply with the number, then its unit.

## Input Query (compound): `N=C(N)c1ccc2cc(OC(=O)c3ccc(N=C(N)N)cc3)ccc2c1` ; field requested: CL/F
## Output 319 L/h/kg
